From: patent US20180086804A1

measurement.target: T1, HLA-DR1 (HLA-DRB1*01:01) (human)
T1 construct: mature; class II HLA molecule purified from homozygous EBV-transformed lymphoblastoid cells with antibody L243
procedure.text: competition ELISA vs biotin-HA 306-318;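 note: HLA and competitor incubated 24 to 72 h, maximal signal taken from wells lacking competitor, background from wells lacking HLA molecule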
No end group written: not given here.
Exercise: state measured relative affinity for each of the binders provided.

Qu. Param item = AKISTLPQLNSALVQ-NH2 [CCNB1 410-424] ; retrieve measured relative affinity.
Ans. 89

Qu. Would you mind telling me what relative affinity value was observed for MEMKILRALNFGLGR-NH2 [CCNB1 285-299] ?
Ans. 1

Qu. Form field: reported relative affinity of LPVMQHLAKNVVMVN-NH2 [CCNB1 377-391]
Ans. 894

Qu. Please give the measured relative affinity for this binder: LHFLRRASKIGEVDV-NH2 [CCNB1 303-317]
Ans. 495

Qu. What value of measured relative affinity is listed for MALRVTRNSKINAEN-NH2 [CCNB1 1-15] ?
Ans. 100
